EXPERIMENTAL TARGET: Na^+ -dependent bile acid transport system (Oryctolagus cuniculus, UniProt Q28727)
Construct: Brush border membrane vesicles from the intestinal cells of the small intestine were prepared by the so-called Mg^2+ precipitation method; from tissue; host or cells: terminal ileum (terminal 7/10 of small intestine) of male New Zealand rabbits, brush border membrane vesicles
Sequence (Q28727 whole entry): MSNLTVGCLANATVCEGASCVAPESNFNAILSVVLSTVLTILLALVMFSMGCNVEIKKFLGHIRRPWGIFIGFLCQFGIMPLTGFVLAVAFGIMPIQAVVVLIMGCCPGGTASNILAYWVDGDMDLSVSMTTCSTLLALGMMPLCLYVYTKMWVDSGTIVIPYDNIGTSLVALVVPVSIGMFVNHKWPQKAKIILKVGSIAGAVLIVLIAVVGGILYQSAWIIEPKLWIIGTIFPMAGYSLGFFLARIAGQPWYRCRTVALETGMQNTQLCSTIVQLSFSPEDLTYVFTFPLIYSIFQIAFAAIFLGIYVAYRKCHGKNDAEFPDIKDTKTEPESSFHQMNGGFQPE
ASSAY TEXT: inhibition of Na+-dependent [3H]-taurocholate absorption in brush border membrane vesicles of rabbit ileum (membrane filtration technique)
Format: biochemical
CONDITION PARAMETERS: quotient of IC50Na of the standard TCDC and of the substance; Na+-dependent transport (difference Na-T-B minus K-T-B); 50 μM taurocholate, customarily 1 minute, pH 7.4
MEASURED QUANTITY: IC50Na (TCDC) / IC50Na (Substance)

1) C[C@H](CCC(=O)O)[C@H]1CC[C@H]2[C@@H]3[C@H](O)C[C@@H]4C[C@@H](OCCCCCNC(=O)c5cc(C(=O)NCCCCCO[C@H]6CC[C@@]7(C)[C@@H](C6)C[C@@H](O)[C@@H]6[C@@H]7C[C@H](O)[C@]7(C)[C@@H]([C@H](C)CCC(=O)O)CC[C@@H]67)cc(C(=O)NCCCCCO[C@H]6CC[C@@]7(C)[C@@H](C6)C[C@@H](O)[C@@H]6[C@@H]7C[C@H](O)[C@]7(C)[C@@H]([C@H](C)CCC(=O)O)CC[C@@H]67)c5)CC[C@]4(C)[C@H]3C[C@H](O)[C@]12C ... 0.86
2) C[C@H](CCC(=O)O)[C@H]1CC[C@H]2[C@@H]3[C@H](O)C[C@@H]4C[C@@H](OCCNC(=O)CCC(CCC(=O)NCCO[C@H]5CC[C@@]6(C)[C@@H](C5)C[C@@H](O)[C@@H]5[C@@H]6C[C@H](O)[C@]6(C)[C@@H]([C@H](C)CCC(=O)O)CC[C@@H]56)(CCC(=O)NCCO[C@H]5CC[C@@]6(C)[C@@H](C5)C[C@@H](O)[C@@H]5[C@@H]6C[C@H](O)[C@]6(C)[C@@H]([C@H](C)CCC(=O)O)CC[C@@H]56)[N+](=O)[O-])CC[C@]4(C)[C@H]3C[C@H](O)[C@]12C ... 0.34
3) C[C@H](CCC(=O)O)[C@H]1CC[C@H]2[C@@H]3[C@H](O)C[C@@H]4C[C@@H](NC(=O)CCOCCCOCC(C)(COCCCOCCC(=O)N[C@H]5CC[C@@]6(C)[C@@H](C5)C[C@@H](O)[C@@H]5[C@@H]6C[C@H](O)[C@]6(C)[C@@H]([C@H](C)CCC(=O)O)CC[C@@H]56)COCCCOCCC(=O)N[C@H]5CC[C@@]6(C)[C@@H](C5)C[C@@H](O)[C@@H]5[C@@H]6C[C@H](O)[C@]6(C)[C@@H]([C@H](C)CCC(=O)O)CC[C@@H]56)CC[C@]4(C)[C@H]3C[C@H](O)[C@]12C ... 0.36
4) C[C@H](CCC(=O)O)[C@H]1CC[C@H]2[C@@H]3[C@H](O)C[C@@H]4C[C@@H](OCCCCCCNC(=O)c5cc(C(=O)NCCCCCCO[C@H]6CC[C@@]7(C)[C@@H](C6)C[C@@H](O)[C@@H]6[C@@H]7C[C@H](O)[C@]7(C)[C@@H]([C@H](C)CCC(=O)O)CC[C@@H]67)cc(C(=O)NCCCCCCO[C@H]6CC[C@@]7(C)[C@@H](C6)C[C@@H](O)[C@@H]6[C@@H]7C[C@H](O)[C@]7(C)[C@@H]([C@H](C)CCC(=O)O)CC[C@@H]67)c5)CC[C@]4(C)[C@H]3C[C@H](O)[C@]12C ... 0.59
5) CC(CCC(=O)O)C1CCC2C3C(O)CC4CC(OCCNC(=O)C5C(C(=O)NCCOC6CCC7(C)C(C6)CC(O)C6C7CC(O)C7(C)C(C(C)CCC(=O)O)CCC67)C(C(=O)NCCOC6CCC7(C)C(C6)CC(O)C6C7CC(O)C7(C)C(C(C)CCC(=O)O)CCC67)C5C(=O)NCCOC5CCC6(C)C(C5)CC(O)C5C6CC(O)C6(C)C(C(C)CCC(=O)O)CCC56)CCC4(C)C3CC(O)C12C (stereo not shown) ... 0.23
6) C[C@H](CCC(=O)O)[C@H]1CC[C@H]2[C@@H]3[C@H](O)C[C@@H]4C[C@@H](NC(=O)[C@]5(C)C[C@](C)(C(=O)N[C@H]6CC[C@@]7(C)[C@@H](C6)C[C@@H](O)[C@@H]6[C@@H]7C[C@H](O)[C@]7(C)[C@@H]([C@H](C)CCC(=O)O)CC[C@@H]67)C[C@](C)(C(=O)N[C@H]6CC[C@@]7(C)[C@@H](C6)C[C@@H](O)[C@@H]6[C@@H]7C[C@H](O)[C@]7(C)[C@@H]([C@H](C)CCC(=O)O)CC[C@@H]67)C5)CC[C@]4(C)[C@H]3C[C@H](O)[C@]12C ... 1.04
7) CC(CCC(=O)O)C1CCC2C3C(O)CC4CC(OCCNC(=O)C5C(C(=O)NCCOC6CCC7(C)C(C6)CC(O)C6C7CC(O)C7(C)C(C(C)CCC(=O)O)CCC67)C(c6ccccc6)C5C(=O)NCCOC5CCC6(C)C(C5)CC(O)C5C6CC(O)C6(C)C(C(C)CCC(=O)O)CCC56)CCC4(C)C3CC(O)C12C (stereo not shown) ... 0.23

###

Below, each entry is listed alongside its reported IC50Na (TCDC) / IC50Na (Substance).
EXPERIMENTAL TARGET: Na^+ -dependent bile acid transport system (Oryctolagus cuniculus)
Construct: Brush border membrane vesicles from the intestinal cells of the small intestine were prepared by the so-called Mg^2+ precipitation method; from tissue; host or cells: terminal ileum (terminal 7/10 of small intestine) of male New Zealand rabbits, brush border membrane vesicles
ASSAY TEXT: inhibition of Na+-dependent [3H]-taurocholate absorption in brush border membrane vesicles of rabbit ileum (membrane filtration technique)
Assay type: biochemical
CONDITION PARAMETERS: quotient of IC50Na of the standard TCDC and of the substance; Na+-dependent transport (difference Na-T-B minus K-T-B); 50 μM taurocholate, customarily 1 minute, pH 7.4
MEASURED QUANTITY: IC50Na (TCDC) / IC50Na (Substance)

1) C[C@H](CCC(=O)O)[C@H]1CC[C@H]2[C@@H]3[C@H](O)C[C@@H]4C[C@@H](OCCCCCCNC(=O)[C@]5(C)C[C@](C)(C(=O)NCCCCCCO[C@H]6CC[C@@]7(C)[C@@H](C6)C[C@@H](O)[C@@H]6[C@@H]7C[C@H](O)[C@]7(C)[C@@H]([C@H](C)CCC(=O)O)CC[C@@H]67)C[C@](C)(C(=O)NCCCCCCO[C@H]6CC[C@@]7(C)[C@@H](C6)C[C@@H](O)[C@@H]6[C@@H]7C[C@H](O)[C@]7(C)[C@@H]([C@H](C)CCC(=O)O)CC[C@@H]67)C5)CC[C@]4(C)[C@H]3C[C@H](O)[C@]12C [Example 16] ... 0.31
2) C[C@H](CCC(=O)O)[C@H]1CC[C@H]2[C@@H]3[C@H](O)C[C@@H]4C[C@@H](OCCCCCNC(=O)[C@]5(C)C[C@](C)(C(=O)NCCCCCO[C@H]6CC[C@@]7(C)[C@@H](C6)C[C@@H](O)[C@@H]6[C@@H]7C[C@H](O)[C@]7(C)[C@@H]([C@H](C)CCC(=O)O)CC[C@@H]67)C[C@](C)(C(=O)NCCCCCO[C@H]6CC[C@@]7(C)[C@@H](C6)C[C@@H](O)[C@@H]6[C@@H]7C[C@H](O)[C@]7(C)[C@@H]([C@H](C)CCC(=O)O)CC[C@@H]67)C5)CC[C@]4(C)[C@H]3C[C@H](O)[C@]12C [Example 31] ... 0.93
3) C[C@H](CCC(=O)O)[C@H]1CC[C@H]2[C@@H]3[C@H](O)C[C@@H]4C[C@H](CCNC(=O)c5cc(C(=O)NCC[C@@H]6CC[C@@]7(C)[C@@H](C6)C[C@@H](O)[C@@H]6[C@@H]7C[C@H](O)[C@]7(C)[C@@H]([C@H](C)CCC(=O)O)CC[C@@H]67)cc(C(=O)NCC[C@@H]6CC[C@@]7(C)[C@@H](C6)C[C@@H](O)[C@@H]6[C@@H]7C[C@H](O)[C@]7(C)[C@@H]([C@H](C)CCC(=O)O)CC[C@@H]67)c5)CC[C@]4(C)[C@H]3C[C@H](O)[C@]12C [Example 18] ... 0.76
4) C[C@H](CCC(=O)O)[C@H]1CC[C@H]2[C@@H]3[C@H](O)C[C@@H]4C[C@@H](OCCNC(=O)CCOCC(C)(COCCC(=O)NCCO[C@H]5CC[C@@]6(C)[C@@H](C5)C[C@@H](O)[C@@H]5[C@@H]6C[C@H](O)[C@]6(C)[C@@H]([C@H](C)CCC(=O)O)CC[C@@H]56)COCCC(=O)NCCO[C@H]5CC[C@@]6(C)[C@@H](C5)C[C@@H](O)[C@@H]5[C@@H]6C[C@H](O)[C@]6(C)[C@@H]([C@H](C)CCC(=O)O)CC[C@@H]56)CC[C@]4(C)[C@H]3C[C@H](O)[C@]12C [Example 10] ... 0.26

The reported measurements were obtained from patent US5428182A.
